TARGET: human CD137 on primary human CD8+ T cells (human, UniProt Q07011 24-255)
Sequence (Q07011 24-255): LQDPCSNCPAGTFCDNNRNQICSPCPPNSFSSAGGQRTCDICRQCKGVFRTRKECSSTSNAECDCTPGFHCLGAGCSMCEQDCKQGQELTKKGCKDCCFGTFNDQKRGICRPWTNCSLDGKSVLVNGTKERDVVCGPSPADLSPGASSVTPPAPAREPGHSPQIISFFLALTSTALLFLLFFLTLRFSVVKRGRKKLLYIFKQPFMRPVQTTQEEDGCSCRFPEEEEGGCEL
ASSAY_EXPLANATION: cell-based or functional assay
EC50 (nM), hIL-2 release, primary human CD8+ T cell activation assay, crosslinked mAb strictly less than 3 nM = True. Otherwise False.

[
  {
    "BINDER": "G1AA/FS30-5 (antibody, human IgG1, kappa, L234A L235A, V domains shown, human IgG1 with LALA mutation in CH2; also called FS30-5 mAb) VH: EVQLLESGGGLVQPGGSLRLNCAASGFTFSSYAMSWVRQAPGKGLEWVSAISGSGGSTYYADSVKGRFTISRDNSKNTLYLQMNSLRAEDTAVYYCARSYDKYWGSSMYSGMDYWGQGTLVTVSS VL: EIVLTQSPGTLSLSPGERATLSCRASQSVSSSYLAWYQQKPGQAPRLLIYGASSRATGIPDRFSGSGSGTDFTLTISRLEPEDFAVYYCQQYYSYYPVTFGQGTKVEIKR",
    "CLASS": "False"
  },
  {
    "BINDER": "G1AA/FS30-15 (antibody, human IgG1, kappa, L234A L235A, V domains shown, human IgG1 with LALA mutation in CH2; also called FS30-15 mAb) VH: EVQLLESGGGLVQPGGSLRLSCAASGFTFSGSGMSWVRQAPGKGLEWVSIIYSTNGDTDYADSVKGRFTISRDNSKNTLYLQMNSLRAEDTAVYYCARDFYDIANYYAFDYWGQGTLVTVSS VL: EIVLTQSPGTLSLSPGERATLSCRASQSVSSSYLAWYQQKPGQAPRLLIYGASSRATGIPDRFSGSGSGTDFTLTISRLEPEDFAVYYCQQAYYDPITFGQGTKVEIKR",
    "CLASS": "False"
  },
  {
    "BINDER": "G1AA/FS30-16 (antibody, human IgG1, kappa, L234A L235A, V domains shown, human IgG1 with LALA mutation in CH2; also called FS30-16 mAb) VH: EVQLLESGGGLVQPGGSLRLSCAASGFTFSNYAMHWVRQAPGKGLEWVSTIDPTDGATNYADSVKGRFTISRDNSKNTLYLQMNSLRAEDTAVYYCARSKYYTYMQYVALDYWGQGTLVTVSS VL: EIVLTQSPGTLSLSPGERATLSCRASQSVSSSYLAWYQQKPGQAPRLLIYGASSRATGIPDRFSGSGSGTDFTLTISRLEPEDFAVYYCQQGSRFFPITFGQGTKVEIKR",
    "CLASS": "True"
  },
  {
    "BINDER": "G1AA/FS30-6 (antibody, human IgG1, kappa, L234A L235A, V domains shown) VH: EVQLLESGGGLVQPGGSLRLSCAASGFTVSYYSISWVRQAPGKGLEWVSDIYSYYGYTDYADSVKGRFTISRDNSKNTLYLQMNSLRAEDTAVYYCARVSYGGQAFDYWGQGTLVTVSS VL: EIVLTQSPGTLSLSPGERATLSCRASQSVSSSYLAWYQQKPGQAPRLLIYGASSRATGIPDRFSGSGSGTDFTLTISRLEPEDFAVYYCQQYDDYPVTFGQGTKVEIKR",
    "CLASS": "True"
  }
]

Switching to the query record.
In plain terms, does G1AA/FS30-10 (antibody, human IgG1, kappa, L234A L235A, V domains shown, human IgG1 with LALA mutation in CH2; also called FS30-10 mAb) VH: EVQLLESGGGLVQPGGSLRLSCAASGFTFSSYDMSWVRQAPGKGLEWVSDIDPTGSKTDYADSVKGRFTISRDNSKNTLYLQMNSLRAEDTAVYYCARDLMVYGFDYWGQGTLVTVSS VL: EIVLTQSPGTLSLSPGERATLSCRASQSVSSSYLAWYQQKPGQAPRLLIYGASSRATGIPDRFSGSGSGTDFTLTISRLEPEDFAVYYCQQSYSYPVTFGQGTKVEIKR come in under 3 nM for EC50 (nM), hIL-2 release, primary human CD8+ T cell activation assay, crosslinked mAb?
False
